Test system: MPNST complex spheroid with HUVEC/MSC, growth, % test/control
protocol details: Anticancer human tumor MPNST cell line growth inhibition [Asc]; active = viability on the fitted dose curve at most 10% of control; inactive = the rest;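 note: compounds left on spheroids for seven days before reading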
assay conditions: second compound 0.01 µM; first compound 10 µM
// classify into Y for active, N for inactive

INSERT INTO assay_data (compound, class_assignment) VALUES
  ('C=CC(=O)N1CCN(c2nc(=O)n(-c3c(C)ccnc3C(C)C)c3nc(-c4c(O)cccc4F)c(F)cc23)C(C)C1 (centres undefined) + CNC(C)C(=O)NC1CN(S(=O)(=O)c2cccc(S(=O)(=O)N3CCC4CCC(C(=O)NC(c5ccccc5)c5ccccc5)N4C(=O)C(NC(=O)C(C)NC)C3)c2)CCC2CCC(C(=O)NC(c3ccccc3)c3ccccc3)N2C1=O', 'N'),
  ('C=C(F)C(=O)N1CCN(c2nc(OCC3CCCN3C)nc3c2CCN(c2cccc4cccc(Cl)c24)C3)CC1CC#N (centres undefined) + CNC(C)C(=O)NC1CN(S(=O)(=O)c2cccc(S(=O)(=O)N3CCC4CCC(C(=O)NC(c5ccccc5)c5ccccc5)N4C(=O)C(NC(=O)C(C)NC)C3)c2)CCC2CCC(C(=O)NC(c3ccccc3)c3ccccc3)N2C1=O', 'Y'),
  ('C#Cc1c(F)ccc2cc(O)cc(-c3ncc4c(N5CC6CCC(C5)N6)nc(OCC56CCCN5CC(F)C6)nc4c3F)c12 (centres undefined) + CNC(C)C(=O)NC1CN(S(=O)(=O)c2cccc(S(=O)(=O)N3CCC4CCC(C(=O)NC(c5ccccc5)c5ccccc5)N4C(=O)C(NC(=O)C(C)NC)C3)c2)CCC2CCC(C(=O)NC(c3ccccc3)c3ccccc3)N2C1=O', 'N');

Continue with the compound presented below.
Prompt line: Please let me know the test result on file for O=C(c1cc(Cc2n[nH]c(=O)c3ccccc23)ccc1F)N1CCN(C(=O)C2CC2)CC1 + CNC(C)C(=O)NC1CN(S(=O)(=O)c2cccc(S(=O)(=O)N3CCC4CCC(C(=O)NC(c5ccccc5)c5ccccc5)N4C(=O)C(NC(=O)C(C)NC)C3)c2)CCC2CCC(C(=O)NC(c3ccccc3)c3ccccc3)N2C1=O .
Response line: N
